test: Stability of HBD1 fragments in human plasma; type: in vitro ADME; details: human, human K2EDTA plasma; spiked at 1 μg/mL; 37° C.; 48 hours; read-out: Remaining parent peptide in human plasma 48 hours post spike
Residues, ends and D or L forms follow the SMILES beside them. *: point of attachment. Stearoyl = CCCCCCCCCCCCCCCCCC(=O)*; Palmitoyl = CCCCCCCCCCCCCCCC(=O)*
Endpoint Name: remaining at 48 h, 1 μg/mL (%)
Response body: numeric value in %, unit text excluded.

Please review the following examples before continuing.
compound="CCCCCCCCCCCCCCCC(=O)N[C@@H](CCCCN)C(=O)N[C@@H](Cc1c[nH]cn1)C(=O)N[C@@H](Cc1c[nH]cn1)C(=O)N[C@@H](CC(C)C)C(=O)NCC(=O)N[C@@H](CC(C)C)C(=O)N[C@@H](CCC(=O)O)C(=O)N[C@@H](CCC(=O)O)C(=O)N1CCC[C@H]1C(=O)N[C@@H](CCCCN)C(=O)N[C@@H](CCCCN)C(=O)N[C@@H](CC(C)C)C(=O)N[C@@H](CCCNC(=N)N)C(=O)O [compound 78] (Palmitoyl-KHHLGLEEPKKLR-OH)" endpoint_value=52
compound="CCCCCCCCCCCCCCCCCC(=O)N[C@@H](Cc1c[nH]cn1)C(=O)N[C@@H](CC(C)C)C(=O)NCC(=O)N[C@@H](CC(C)C)C(=O)N[C@@H](CCC(=O)O)C(=O)N[C@@H](CCC(=O)O)C(=O)N1CCC[C@H]1C(=O)N[C@@H](CCCCN)C(=O)N[C@@H](CCCCN)C(=O)O [compound 73] (Stearoyl-HLGLEEPKK-OH)" endpoint_value=91
compound="CC(C)C[C@@H]1NC(=O)CNC(=O)[C@H](CC(C)C)NC(=O)[C@H](Cc2c[nH]cn2)NC(=O)[C@H](CCCCN)NC(=O)[C@H](CCCCN)NC(=O)[C@@H]2CCCN2C(=O)[C@H](CCC(=O)O)NC(=O)[C@H](CCC(=O)O)NC1=O [compound 77] (cyclo(EEPKKHLGL))" endpoint_value=95

Pending compound:
Entry CCCCCCCCCCCCCCCC(=O)N[C@@H](Cc1c[nH]cn1)C(=O)N[C@@H](CC(C)C)C(=O)NCC(=O)N[C@@H](CC(C)C)C(=O)N[C@@H](CCC(=O)O)C(=O)N[C@@H](CCC(=O)O)C(=O)N1CCC[C@H]1C(=O)N[C@@H](CCCCN)C(=O)N[C@@H](CCCCN)C(=O)O [compound 72] (Palmitoyl-HLGLEEPKK-OH) — recorded remaining at 48 h, 1 μg/mL = 87

Reference source for all entries: patent US20190352358A1
